Observed IC50 values for Matrix metalloproteinase-14 (Homo sapiens, UniProt P50281) are listed in what follows.

SMILES REPR | IC50, nM
CCOCCC1(Oc2ccc(Oc3ccccc3F)cc2)C(=O)NC(=O)NC1=O | 15.8
CCOCCC1(Oc2ccc(Oc3cccc(C)c3)cc2)C(=O)NC(=O)NC1=O | 50.1
CCOCCC1(Oc2ccc(Oc3ccc(F)cc3)cc2)C(=O)NC(=O)NC1=O | 22.9
CCOCCC1(Oc2ccc(Oc3cccc(Cl)c3)cc2)C(=O)NC(=O)NC1=O | 120
CCOCCC1(Oc2ccc(Oc3ccc(C#N)cc3)cc2)C(=O)NC(=O)NC1=O | 200

====

Reported IC50 values follow for various compounds
# ASSAY SYSTEM: Collagenase 3 (Homo sapiens, UniProt P45452)

COMPOUND | ASSAY SYSTEM | IC50
COc1ccc(S(=O)(=O)N2CCN(C(=O)C(O)C(C)C)CC2C(=O)NO)cc1 (centres undefined) | Collagenase 3 (Homo sapiens, UniProt P45452) | 1 nM
COc1ccc(S(=O)(=O)N2CCN(C(=O)c3nnsc3C)CC2C(=O)NO)cc1 (centres undefined) | Collagenase 3 (Homo sapiens, UniProt P45452) | 20.9 nM
COCCOC(=O)N1CCC(C(C(=O)O)N(Cc2cccnc2)S(=O)(=O)c2ccc(-c3ccc(OC)cc3)cc2)CC1 (centres undefined) | Collagenase 3 (Homo sapiens, UniProt P45452) | 3.02 nM
COc1ccc(S(=O)(=O)N2CCCN(C(=O)CNOC(=O)C(C)(C)C)CC2C(=O)NO)cc1 (centres undefined) | Collagenase 3 (Homo sapiens, UniProt P45452) | 15.8 nM

====

# ASSAY SYSTEM: UniProt P50281
pIC50: −log10 of the molar value.
Classify by measured pIC50: YES if it is equal to or exceeds 7, NO if it is smaller.

SMILES REPR | CATEGORY
CCOCCC1(Oc2ccc(Oc3ccccc3Cl)cc2)C(=O)NC(=O)NC1=O | NO
CCOCCC1(Oc2ccc(Oc3ccc(Br)cc3)cc2)C(=O)NC(=O)NC1=O | YES
CCOCCC1(Oc2ccc(Oc3ccc(Cl)cc3)cc2)C(=O)NC(=O)NC1=O | YES
CCOCCC1(Oc2ccc(Oc3ccc(C)cc3)cc2)C(=O)NC(=O)NC1=O | YES
CCOCCC1(Oc2ccc(Oc3ccc(C(=O)N(C)C)cc3)cc2)C(=O)NC(=O)NC1=O | NO
CCOCCC1(Oc2ccc(Oc3ccc(-c4ccccc4)cc3)cc2)C(=O)NC(=O)NC1=O | YES
CCOCCC1(Oc2ccc(Oc3ccc(C(N)=O)cc3)cc2)C(=O)NC(=O)NC1=O | NO
CCOCCC1(Oc2ccc(Oc3ccc(S(C)(=O)=O)cc3)cc2)C(=O)NC(=O)NC1=O | NO

====

# ASSAY SYSTEM: Matrilysin (Homo sapiens)
# Sequence (P09237 whole entry): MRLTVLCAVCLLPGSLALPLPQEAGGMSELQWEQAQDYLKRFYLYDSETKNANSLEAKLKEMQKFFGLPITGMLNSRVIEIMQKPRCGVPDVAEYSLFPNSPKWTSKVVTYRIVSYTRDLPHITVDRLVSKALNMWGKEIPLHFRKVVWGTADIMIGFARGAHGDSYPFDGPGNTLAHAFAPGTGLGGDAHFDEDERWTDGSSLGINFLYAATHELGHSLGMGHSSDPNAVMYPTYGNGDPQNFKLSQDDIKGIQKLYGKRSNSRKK
# STUDY CONDITIONS: read-out: log(1/IC50) (converted)
Reported IC50 values follow for various compounds
EXPERIMENTAL READOUT: IC50 (nM)

COMPOUND | UNIT ANNOTATION | ASSAY RESULT
CCCCOc1ccc(S(=O)(=O)N2CC(N3C(=O)NC(SC)C3=O)C[C@@H]2C(=O)NO)cc1 (stereo not given in full) | nM | 851
COCCOc1ccc(S(=O)(=O)N2CC(N3C(=O)CN(C)C3=O)C[C@@H]2C(=O)NO)cc1 (stereo not given in full) | nM | 9120
CC(C)COc1ccc(S(=O)(=O)N2CC(N3C(=O)CN(C)C3=O)C[C@@H]2C(=O)NO)cc1 (stereo not given in full) | nM | 2290
C=CCN1CC(=O)N(C2C[C@H](C(=O)NO)N(S(=O)(=O)c3ccc(OCCCC)cc3)C2)C1=O (stereo not given in full) | nM | 1000
CCOc1ccc(S(=O)(=O)N2CC(N3C(=O)CN(C)C3=O)C[C@@H]2C(=O)NO)cc1 (stereo not given in full) | nM | 7590
C=CCN1CC(=O)N(C2C[C@H](C(=O)NO)N(S(=O)(=O)c3ccc(OCCC)cc3)C2)C1=O (stereo not given in full) | nM | 2570
C=CCN1CC(=O)N(C2C[C@H](C(=O)NO)N(S(=O)(=O)c3ccc(OCCOC)cc3)C2)C1=O (stereo not given in full) | nM | 11000
CCCOc1ccc(S(=O)(=O)N2CC(N3C(=O)CN(C)C3=O)C[C@@H]2C(=O)NO)cc1 (stereo not given in full) | nM | 2570
CCCCOc1ccc(S(=O)(=O)N2CC(N3C(=O)NC(C)(C)C3=O)C[C@@H]2C(=O)NO)cc1 (stereo not given in full) | nM | 447
CCCCOc1ccc(S(=O)(=O)N2CC(N3C(=O)CN(C)C3=O)C[C@@H]2C(=O)NO)cc1 (stereo not given in full) | nM | 1580
CCCCOc1ccc(S(=O)(=O)N2CC(N3C(=O)CN(CCC)C3=O)C[C@@H]2C(=O)NO)cc1 (stereo not given in full) | nM | 1200
CCCN1CC(=O)N(C2C[C@H](C(=O)NO)N(S(=O)(=O)c3ccc(OCCOC)cc3)C2)C1=O (stereo not given in full) | nM | 11000
CN1CC(=O)N(C2C[C@H](C(=O)NO)N(S(=O)(=O)c3ccc(Oc4ccncc4)cc3)C2)C1=O (stereo not given in full) | nM | 7410
CN1CC(=O)N(C2C[C@H](C(=O)NO)N(S(=O)(=O)c3ccc(Oc4ccccc4)cc3)C2)C1=O (stereo not given in full) | nM | 309
COc1ccc(S(=O)(=O)N2CC(N3C(=O)CN(C)C3=O)C[C@@H]2C(=O)NO)cc1 (stereo not given in full) | nM | 1820

====

# ASSAY SYSTEM: Interstitial collagenase (Homo sapiens, UniProt P03956)
# Sequence (P03956 whole entry): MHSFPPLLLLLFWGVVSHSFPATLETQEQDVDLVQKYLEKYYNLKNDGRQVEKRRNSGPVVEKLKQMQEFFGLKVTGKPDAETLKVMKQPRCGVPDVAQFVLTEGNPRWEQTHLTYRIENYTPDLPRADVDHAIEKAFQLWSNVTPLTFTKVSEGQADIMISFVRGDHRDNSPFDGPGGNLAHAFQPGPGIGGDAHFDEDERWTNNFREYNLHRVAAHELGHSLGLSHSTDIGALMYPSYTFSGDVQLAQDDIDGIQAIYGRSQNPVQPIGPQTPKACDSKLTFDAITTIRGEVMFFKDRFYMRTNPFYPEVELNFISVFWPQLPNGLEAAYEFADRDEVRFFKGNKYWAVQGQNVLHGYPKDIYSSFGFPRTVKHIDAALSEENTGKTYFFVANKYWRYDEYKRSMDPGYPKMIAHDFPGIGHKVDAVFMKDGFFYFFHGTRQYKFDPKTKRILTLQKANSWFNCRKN
# STUDY CONDITIONS: read-out: log(1/IC50) (converted)

COMPOUND | IC50 [nM]
C[C@@]1(O)CCCN(S(=O)(=O)c2ccc(OCc3cncc4ccccc34)cc2)C1C(=O)NO (stereo partly drawn) | 7760
CNC(=O)[C@@H](NC(=O)C(CC1CC1)CP(=O)(O)Cc1ccc(Cc2ccccc2)cc1)C(C)(C)C (stereo partly drawn) | 200
C[C@@]1(O)CCCN(S(=O)(=O)c2ccc(OCc3ccc(Cl)cc3F)cc2)C1C(=O)NO (stereo partly drawn) | 120
Cc1ccccc1COc1ccc(S(=O)(=O)N2CCC[C@@](C)(O)C2C(=O)NO)cc1 (stereo partly drawn) | 309
CNC(=O)[C@@H](NC(=O)C(CC1CCC1)CP(=O)(O)Cc1ccc(Cc2ccccc2)cc1)C(C)(C)C (stereo partly drawn) | 178
CC(C)CC(C(=O)NO)N(Cc1ccccc1)S(=O)(=O)c1c(F)c(F)c(F)c(F)c1F (stereo not drawn) | 6.03
CNC(=O)[C@@H](Cc1ccc(OC)cc1)NC(=O)C(CC(C)C)CP(=O)(O)Cc1ccc(CC(C)C)cc1 (stereo partly drawn) | 4470
CNC(=O)[C@@H](NC(=O)C(CCc1ccccc1)CP(=O)(O)Cc1ccc(Cc2ccccc2)cc1)C(C)(C)C (stereo partly drawn) | 692

====

Reported log10 of IC50 values follow for various compounds
# ASSAY SYSTEM: Interstitial collagenase (Homo sapiens, UniProt P03956)
# STUDY CONDITIONS: read-out: log(1/IC50) (converted)
EXPERIMENTAL READOUT: log10 of IC50 (log10 of the value in µM)

COMPOUND | ASSAY RESULT
C[C@@]1(O)CCCN(S(=O)(=O)c2ccc(OCc3ccc(F)cc3)cc2)C1C(=O)NO (stereo partly drawn) | -0.38
C[C@@]1(O)CCCN(S(=O)(=O)c2ccc(OCc3cccc(F)c3)cc2)C1C(=O)NO (stereo partly drawn) | -0.47
O=C(CN(Cc1ccc([N+](=O)[O-])cc1)S(=O)(=O)c1c(F)c(F)c(F)c(F)c1F)NO | -2.52
CNC(=O)[C@@H](Cc1ccc(OC)cc1)NC(=O)C(CC(C)C)CP(=O)(O)Cc1ccc(CC2CCCCC2)cc1 (stereo partly drawn) | 0.28
CNC(=O)[C@@H](Cc1ccc(OC)cc1)NC(=O)C(CC(C)C)CP(=O)(O)Cc1cccc(CCc2ccccc2)c1 (stereo partly drawn) | 0.87
CC(C(=O)NO)N(Cc1ccc([N+](=O)[O-])cc1)S(=O)(=O)c1c(F)c(F)c(F)c(F)c1F (stereo not drawn) | -2.40
C[C@@]1(O)CCCN(S(=O)(=O)c2ccc(OCc3ccccc3F)cc2)C1C(=O)NO (stereo partly drawn) | -0.74
Cc1c(F)cccc1COc1ccc(S(=O)(=O)N2CCC[C@@](C)(O)C2C(=O)NO)cc1 (stereo partly drawn) | 0.11

====

Observed pIC50 values for Matrix metalloproteinase-14 (Homo sapiens) are listed in what follows.
pIC50: −log10 of the molar value.

SMILES REPR | pIC50
CCOCCC1(Oc2ccc(Oc3ccc(C(C)(C)C)cc3)cc2)C(=O)NC(=O)NC1=O | 5.17
CCOCCC1(Oc2ccc(Oc3ccc(OC)cc3)cc2)C(=O)NC(=O)NC1=O | 6.66
CCOCCC1(Oc2ccc(Oc3cccc(F)c3)cc2)C(=O)NC(=O)NC1=O | 7.22
CCOCCC1(Oc2ccc(Oc3ccccc3C)cc2)C(=O)NC(=O)NC1=O | 7.15
CCOCCC1(Oc2ccc(Oc3ccc(C(=O)NC)cc3)cc2)C(=O)NC(=O)NC1=O | 6.19
